Values from patent US12357596B2

- procedure text: Toxicokinetics in satellite animals of the 28-day oral gavage study (plasma, Day 1)
- Assay type: in vivo, Sprague-Dawley rats
- experimental setup: Sprague-Dawley, rat, male rats, Day 1, 30 mg/kg/day (NOAEL), for information only (ISR failed)
reported endpoint: Cmax (ng/mL)
Write it as a number; the unit ng/mL goes unstated.

Identify the reported Cmax for the following entry. `COc1cccc(/C=N/N(C(=O)C(F)(F)F)c2ccc(C)cc2C)c1`
146

---

- procedure text: Toxicokinetics in satellite animals of the 28-day oral gavage study (plasma, Day 1)
- Format: in vivo, Sprague-Dawley rats
- experimental setup: Sprague-Dawley, rat, female rats, Day 1, 30 mg/kg/day (NOAEL), for information only (ISR failed)
- Method: J147 or vehicle was administered once daily to Sprague-Dawley rats via oral gavage for 28 consecutive days at a daily dose of 0, 30, 100 or 300 mg/kg. J174 was prepared in a vehicle formulation comprising 5% ethanol, 5% DMSO and 90% corn oil (v/v/v). Certified rodent diet and water was available ad libitum. Groups 1-4 contained 10 animals/sex/group. Groups 1 (control) and 4 (high dose) also included an additional 5 animals/sex/group for use as recovery animals. […]
reported endpoint: Cmax (ng/mL)
Write it as a number; the unit ng/mL goes unstated.

Identify the reported Cmax for the following entry. `COc1cccc(/C=N/N(C(=O)C(F)(F)F)c2ccc(C)cc2C)c1`
50.8
